Assay: T1/2 in equine serum
Format: ADME, organism-based, Equus caballus
Conditions: horse
PARAMETER_MEASURED: half-life (min)
Just the number please, in min, no unit attached.

CCCCCCCC(C)(CCCC)OC(=O)c1cnc(Cl)cn1 (stereo not given): 600
CCCCCCCOC(=O)c1cnc(Cl)cn1: 3.2
CCCCCCOC(=O)c1cnc(Cl)cn1: 2.2
CCCCCCCOC(=O)c1cnc(C)cn1: 3.2
CCCCOC(=O)c1cnc(Cl)cn1: 5.5

Given `CC(C)COC(=O)c1cnc(Cl)cn1` , state its recorded half-life.
11.8

Given `CCCCCCC(CCCCCC)OC(=O)c1cnc(Cl)cn1` , state its recorded half-life.
60

Given `CCC(C)(CC)OC(=O)c1cnc(Cl)cn1` , state its recorded half-life.
1020

Given `CCCCCCCCCCOC(=O)c1cnccn1` , state its recorded half-life.
0.8

Given `COC(=O)c1cnc(I)cn1` , state its recorded half-life.
200

---

System: Mycobacterium kansasii
Test: in vitro activity against Mycobacterium kansasii (SWK).
Type: functional
PARAMETER_MEASURED: Log 1/MMIC
// print number alone

CCCCCCCCCOC(=O)c1cnc(C)cn1: 2.121
CCCCCC(C)(CCCCC)OC(=O)c1cnc(Cl)cn1: 1.611
CCCCCCCCCCOC(=O)c1cnc(Cl)cn1: 2.776
CCCCCCC(C)(C)OC(=O)c1cnc(Cl)cn1: 2.455
CCCCCCC(C)(CCCCCC)OC(=O)c1cnc(Cl)cn1: 2.249

GET /values?readout=Log 1/MMIC&system=Mycobacterium kansasii&item= `CCCCCCCCC(C)(C)OC(=O)c1cnc(Cl)cn1`
2.194

GET /values?readout=Log 1/MMIC&system=Mycobacterium kansasii&item= `CCCCCCCCOC(=O)c1cnc(Cl)cn1`
3.955

GET /values?readout=Log 1/MMIC&system=Mycobacterium kansasii&item= `CCCCCCCCCOC(=O)c1cnc(Cl)cn1`
3.358

GET /values?readout=Log 1/MMIC&system=Mycobacterium kansasii&item= `CCOC(=O)c1cnc(Cl)cn1`
1.97

---

System: Mycobacterium kansasii
Test: in vitro activity against Mycobacterium kansasii (SWK).
Assay type: functional
Below: a set of entries, each annotated with reported Log 1/MMIC.
// print number alone

Use these answered entries as a reference point.
CCC(C)(CC)OC(=O)c1cnc(Cl)cn1: 2.084
CCCCCCCCC(C)OC(=O)c1cnc(Cl)cn1 (stereo not given): 3.378
CCCCCOC(=O)c1cnc(Cl)cn1: 3.882

GET /values?readout=Log 1/MMIC&system=Mycobacterium kansasii&item= `CC(C)(C)OC(=O)c1cnc(Cl)cn1`
2.633

GET /values?readout=Log 1/MMIC&system=Mycobacterium kansasii&item= `CCCCCCCOC(=O)c1cnc(Cl)cn1`
3.932

GET /values?readout=Log 1/MMIC&system=Mycobacterium kansasii&item= `O=C(OCc1ccccc1)c1cnc(Cl)cn1`
2.396

---

Assay: T1/2 in equine serum
Type: ADME, organism-based, Equus caballus
Conditions: horse
PARAMETER_MEASURED: log10 of half-life (log10 of the value in h)
Give log10 of half-life, with half-life taken in h.

Use these answered entries as a reference point.
CCCCCCCCCCOC(=O)c1cnc(F)cn1: -1.18
CCCCCCCCC(C)(CCCC)OC(=O)c1cnc(Cl)cn1 (configuration not stated): 1.28
CCCCCCCC(C)(CCCCC)OC(=O)c1cnc(Cl)cn1 (configuration not stated): 1.72

Given CCCCCCC(C)(CCCCC)OC(=O)c1cnc(Cl)cn1 (configuration not stated) , state its recorded log10 of half-life.
1.37

Given `CCCCCCC(C)(C)OC(=O)c1cnc(Cl)cn1` , state its recorded log10 of half-life.
0.93

Given `CCCCCCCCOC(=O)c1cnc(Cl)cn1` , state its recorded log10 of half-life.
-1.66

Given `CCCCCCCCCC(C)(C)OC(=O)c1cnc(Cl)cn1` , state its recorded log10 of half-life.
1.18
